Where do these numbers come from? They come from patent US20250170112A1.

- system_tested: human Adenosine A1 receptor (Homo sapiens, UniProt P30542)
- experimental_protocol: GTPγS scintillation proximity assay, agonist testing
- assay_conditions: agonist activity; membrane extracts of CHO-K1 cells expressing recombinant human A1; read-out: A1AR EC50
- Protocol: SPA ^35S-GTPγS experiments were conducted with Epics Therapeutics membrane preparations. cAMP HTRF assays were conducted with recombinant cell lines. […] Protocol for agonist testing: membranes are mixed with GDP (volume:volume). […] Then the plates are centrifuged for 10 min at 2000 rpm, incubated at room temperature and counted for 30 sec/well with a PerkinElmer TopCount™ reader. • Conditions for the GTPγS scintillation proximity assay are shown in Table 14.
pEC50: −log10 of the molar value.

chemical_string: Cc1nc(SCCC(F)(F)F)c(C#N)c(-c2ccc(OCCO)cc2)c1C#N
system_tested: human Adenosine A1 receptor (Homo sapiens, UniProt P30542)
readout_relation: <
pEC50: 5.00
//
chemical_string: COCCOc1ccc(-c2c(C#N)c(N)nc(SCc3cccc4[nH]cnc34)c2C#N)cc1
system_tested: human Adenosine A1 receptor (Homo sapiens, UniProt P30542)
readout_relation: <
pEC50: 5.00
//
chemical_string: N#Cc1c(SCc2cccnn2)nc(C2CC2)c(C#N)c1-c1ccc(OCCOC2COC2)cc1
system_tested: human Adenosine A1 receptor (Homo sapiens, UniProt P30542)
readout_relation: =
pEC50: 6.04
//
chemical_string: COCCOc1ccc(-c2c(C#N)c(N)nc(SCc3ccnc4[nH]ccc34)c2C#N)cc1
system_tested: human Adenosine A1 receptor (Homo sapiens, UniProt P30542)
readout_relation: <
pEC50: 5.00
//
chemical_string: N#Cc1c(SCCO)nc(N2CCCC2)c(C#N)c1-c1ccc(OCCO)cc1
system_tested: human Adenosine A1 receptor (Homo sapiens, UniProt P30542)
readout_relation: =
pEC50: 6.56
//
chemical_string: COCCOc1ccc(-c2c(C#N)c(N)nc(Sc3cccnc3)c2C#N)cc1
system_tested: human Adenosine A1 receptor (Homo sapiens, UniProt P30542)
readout_relation: <
pEC50: 5.00
//
chemical_string: N#Cc1c(N)nc(SCc2nc3cc(Cl)ccc3s2)c(C#N)c1-c1ccc(OCCO)cc1
system_tested: human Adenosine A1 receptor (Homo sapiens, UniProt P30542)
readout_relation: =
pEC50: 6.30
//
chemical_string: COCCOc1ccc(-c2c(C#N)c(N)nc(SCC(N)=O)c2C#N)cc1
system_tested: human Adenosine A1 receptor (Homo sapiens, UniProt P30542)
readout_relation: =
pEC50: 6.11
//
chemical_string: N#Cc1c(N)nc(SCc2cccnn2)c(C#N)c1-c1ccc(OC2COC2)cc1
system_tested: human Adenosine A1 receptor (Homo sapiens, UniProt P30542)
readout_relation: =
pEC50: 8.91
//
chemical_string: N#Cc1c(N)nc(SCc2cncc3[nH]ccc23)c(C#N)c1-c1ccc(OCCO)cc1
system_tested: human Adenosine A1 receptor (Homo sapiens, UniProt P30542)
readout_relation: <
pEC50: 5.00

---

- system_tested: UniProt:P30542
- experimental_protocol: GTPγS scintillation proximity assay, agonist testing
- assay_conditions: agonist activity; membrane extracts of CHO-K1 cells expressing recombinant human A1; read-out: A1AR EC50
pEC50: −log10 of the molar value.

compound: COCCOc1ccc(-c2c(C#N)c(N)nc(SCC3CCOC3)c2C#N)cc1 (stereo not drawn)
pEC50: 6.91
--
compound: N#Cc1c(N)nc(SCC(N)=O)c(C#N)c1-c1ccc(OCCO)cc1
pEC50: 6.92
--
compound: N#Cc1c(N)nc(SCc2cccc(OC(F)(F)F)c2)c(C#N)c1-c1ccc(OC2COC2)cc1
pEC50: 7.10

---

- system_tested: human A2B (Homo sapiens, UniProt P29275)
- Sequence (P29275 whole entry): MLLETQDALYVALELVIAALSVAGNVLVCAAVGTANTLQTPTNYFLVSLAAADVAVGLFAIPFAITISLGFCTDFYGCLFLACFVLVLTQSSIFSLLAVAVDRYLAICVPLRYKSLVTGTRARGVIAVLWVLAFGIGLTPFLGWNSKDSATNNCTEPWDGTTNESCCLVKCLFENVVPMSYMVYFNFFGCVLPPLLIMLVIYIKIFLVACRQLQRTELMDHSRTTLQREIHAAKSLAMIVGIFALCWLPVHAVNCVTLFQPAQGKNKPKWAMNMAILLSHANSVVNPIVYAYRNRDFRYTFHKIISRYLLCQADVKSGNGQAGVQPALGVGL
- experimental_protocol: cAMP HTRF assay for Gs coupled receptor, agonist test
- assay_conditions: agonist activity; HEK293 cells expressing recombinant human A2B; read-out: A2BAR EC50
pEC50: −log10 of the molar value.
Mark false for pEC50 values under 7, and true for everything at or above.

compound: COc1nc(SCc2cccnc2)c(C#N)c(-c2ccc(OCCO)cc2)c1C#N [Compound 282]
answer_label: true
//
compound: COCCOc1ccc(-c2c(C#N)c(N)nc(CCc3cccnc3)c2C#N)cc1 [Compound 191]
answer_label: false
//
compound: COCCOc1ccc(-c2c(C#N)c(N)nc(SCCC#N)c2C#N)cc1 [Compound 122]
answer_label: false
//
compound: Cc1ccc(CSc2nc(N3CCC3)c(C#N)c(-c3ccc(OCCO)cc3)c2C#N)c(C)n1 [Compound 74]
answer_label: false
//
compound: CNCCSc1nc(N)c(C#N)c(-c2ccc(OCCO)cc2)c1C#N [Compound 128]
answer_label: false
//
compound: N#Cc1c(N)nc(SCC2COC2)c(C#N)c1-c1ccc(OC2CCCOC2)cc1 (stereo not drawn) [Compound 308]
answer_label: false
//
compound: N#Cc1c(N)nc(CCc2cccnc2)c(C#N)c1-c1ccc(OCCO)cc1 [Compound 125]
answer_label: false
//
compound: N#Cc1c(N)nc(SCC2(F)COC2)c(C#N)c1-c1ccc(OC2COC2)cc1 [Compound 227]
answer_label: false
//
compound: N#Cc1c(N)nc(SCCC(F)(F)F)c(C#N)c1-c1ccc(O[C@H]2C[C@H](O)C2)cc1 [Compound 328]
answer_label: false
//
compound: CNc1nc(SCC2COC2)c(C#N)c(-c2ccc(OC3COC3)cc2)c1C#N [Compound 230]
answer_label: false
//
compound: CC(C)(O)COc1ccc(-c2c(C#N)c(N)nc(SCc3cccnc3)c2C#N)cc1 [Compound 51]
answer_label: true
//
compound: CN(C)c1nc(SCC2COC2)c(C#N)c(-c2ccc(OC3COC3)cc2)c1C#N [Compound 318]
answer_label: false
//
compound: CCOCCSc1nc(N)c(C#N)c(-c2ccc(OC3COC3)cc2)c1C#N [Compound 17]
answer_label: false
//
compound: COc1nc(SCC2COC2)c(C#N)c(-c2ccc(OCCO)cc2)c1C#N [Compound 281]
answer_label: false
//
compound: CC(O)COc1ccc(-c2c(C#N)c(N)nc(SCC3COC3)c2C#N)cc1 (stereo not drawn) [Compound 316]
answer_label: false
//
compound: N#Cc1c(SCCC(F)(F)F)nc(N2CCCC2)c(C#N)c1-c1ccc(OCCO)cc1 [Compound 104]
answer_label: false
//
compound: COCCOc1ccc(-c2c(C#N)c(N)nc(SCC(=O)O)c2C#N)cc1 [Compound 68]
answer_label: false
//
compound: N#Cc1c(SCc2cccnn2)nc(C2CC2)c(C#N)c1-c1ccc(OCCOC2COC2)cc1 [Compound 242]
answer_label: false
//
compound: N#Cc1c(N)nc(SCc2ncccn2)c(C#N)c1-c1ccc(OCCO)cc1 [Compound 176]
answer_label: true

---

The following molecules are shown together with reported EC50 values.
- system_tested: human Adenosine A1 receptor (Homo sapiens)
- Sequence (P30542 1-326): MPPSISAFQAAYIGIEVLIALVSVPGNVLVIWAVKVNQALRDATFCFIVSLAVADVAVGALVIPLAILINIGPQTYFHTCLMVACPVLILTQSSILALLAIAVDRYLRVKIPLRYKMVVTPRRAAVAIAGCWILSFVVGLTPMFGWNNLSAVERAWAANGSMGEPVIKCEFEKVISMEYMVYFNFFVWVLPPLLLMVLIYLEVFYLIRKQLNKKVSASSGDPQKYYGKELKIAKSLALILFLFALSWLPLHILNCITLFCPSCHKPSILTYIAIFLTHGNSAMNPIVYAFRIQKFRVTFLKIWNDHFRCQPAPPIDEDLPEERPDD
- experimental_protocol: GTPγS scintillation proximity assay, agonist testing
- assay_conditions: agonist activity; membrane extracts of CHO-K1 cells expressing recombinant human A1; read-out: A1AR EC50

chemical_string: N#Cc1c(N)nc(SCc2cccnc2)c(C#N)c1-c1ccc(O[C@H]2C[C@@H](O)C2)cc1
EC50: 0.0206 µM
--
chemical_string: COCCOc1ccc(-c2c(C#N)c(N)nc(SCc3nccc4[nH]ccc34)c2C#N)cc1
EC50: > 10 µM
--
chemical_string: COCCOc1ccc(-c2c(C#N)c(SCc3cccnn3)nc(C3CC3)c2C#N)cc1
EC50: > 10 µM

---

The following molecules are shown together with reported pEC50 values.
- system_tested: human Adenosine A1 receptor (Homo sapiens, UniProt P30542)
- Sequence (P30542 1-326): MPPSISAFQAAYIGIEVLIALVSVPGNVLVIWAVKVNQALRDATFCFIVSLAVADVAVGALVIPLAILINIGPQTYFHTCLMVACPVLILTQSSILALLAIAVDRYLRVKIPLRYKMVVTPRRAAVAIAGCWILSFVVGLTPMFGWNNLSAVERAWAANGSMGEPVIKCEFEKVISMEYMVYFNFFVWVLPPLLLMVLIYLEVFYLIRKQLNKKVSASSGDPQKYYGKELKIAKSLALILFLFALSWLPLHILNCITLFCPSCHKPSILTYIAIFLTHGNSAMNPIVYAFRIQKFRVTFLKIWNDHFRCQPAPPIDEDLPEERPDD
- experimental_protocol: GTPγS scintillation proximity assay, agonist testing
- assay_conditions: agonist activity; membrane extracts of CHO-K1 cells expressing recombinant human A1; read-out: A1AR EC50
pEC50: −log10 of the molar value.

chemical_string: N#Cc1c(N)nc(SCc2cccc3occc23)c(C#N)c1-c1ccc(OCCO)cc1
pEC50: < 5.00
--
chemical_string: N#Cc1c(SCc2cccnc2)nc(N2CCC2)c(C#N)c1-c1ccc(OC(F)(F)CO)cc1
pEC50: < 5.00
--
chemical_string: N#Cc1c(N)nc(SCc2nccc3[nH]ccc23)c(C#N)c1-c1ccc(OCCO)cc1
pEC50: < 5.00
